Assay: yeast display, Sf9 membrane polyspecificity reagent, FACS + sequencing; frameworks hold sequencing errors

[
  {
    "sequence.data": "QVQLLESGGGLVQAGASLRLSCAASGSIFLPNAMGWSRQAPGKERELVAAISWSGGSTYADSVKGRITISRDNAKNTVYLQMNILKPEDTAFYFCAADDGFTPRDLYVCYDYWGQGTQVTVSS",
    "polyreactivity (PSR sort gate)": "low polyreactivity"
  },
  {
    "sequence.data": "QVQLEESGGSIVQAGGSLRLSCAASGYTFLGNAMGWYRKAPGKERELVAAISSGGTTFYADSVMGRFTISRDNAKNTVYLQMNSLNPEDTAVYYCAAKDTTVFYYDDDYWGQGTQVTVSS",
    "polyreactivity (PSR sort gate)": "low polyreactivity"
  }
]

----------
Test: yeast display, Sf9 membrane polyspecificity reagent, FACS + sequencing; frameworks hold sequencing errors
value.type: polyreactivity (PSR sort gate)

[
  {
    "sequence.data": "QVQLVESGGGLVQAGGSLRLSCAASGSIFDYYAMGWDRQAPGKERELVAAISWSGGSTYYADSVKGRFTISRDNAKNTVYLHMNSLNPEDTAVYYCAADEYDYYHSRWYEYWGQGTQVTVSS",
    "polyreactivity (PSR sort gate)": "high polyreactivity"
  },
  {
    "sequence.data": "QVQLVESGGGLVQAGGSLRLSCAASGSIFQNYAMGWYRQAPGKERELVAAINDDSTYYADSVKGRFTISRDNAKNTVYLQMNSLKPEDTAVYYCNAEDYVTLKIDLSWPYGYWGQGTQVTVSS",
    "polyreactivity (PSR sort gate)": "low polyreactivity"
  },
  {
    "sequence.data": "QVQLVETGGGLVQAGGSLRLSCAASGYIFYPYTMGSYRPAPGKATELVAAITWSGSTYSADSVQGRFTMSRDTAKNTVYLQMKSLKPEDTAVYYCAADFDSYDSYTYLQYDYWGQGTQVTVSS",
    "polyreactivity (PSR sort gate)": "low polyreactivity"
  },
  {
    "sequence.data": "QVQLVESGGGLVQAGGSLRLSCAACGSTFRYYAMGWYRQAPGKERELVAAITYSGGSTYYADSVKGRFTISRDNAKNTVYLQMNSLKPEDTAVYYCNADFLPRWYPPPYDYWGQGTQVTVSS",
    "polyreactivity (PSR sort gate)": "high polyreactivity"
  },
  {
    "sequence.data": "QVQLVESGGGLVQAGGSLRLSCAASGFTFGGYAMGWYRQAPGKERELVAAISRSGGSTYYADSVKGRFIISRDNAKNTVYLQMNSLKPEDTAVYYCAAKTVSRARLYDYWGQGTQVTVSS",
    "polyreactivity (PSR sort gate)": "high polyreactivity"
  }
]

polyreactivity (PSR sort gate) measured on QVQLVESGGGLVQAGGSLRLSCAASGPTFFLYDMGWYRQAPGKERELVAAITSSGGDTYYADSVKGRFTISRDNAKNTVYLQMNSLKPEDTAVYYCAAEVWFPDRWMDYWGQGTQVTVSS = high polyreactivity

Sample QVQLVESGGGLVQAGGSHRLSCAASGITFGSYVMGWYRQAPGKERELVAAISRSGGRTYYADSVKGRFTISRDNAKNTVYLQMNSLKPEDTAVYYCAARYDSGNYVYWGQGTQLTVSS ; polyreactivity (PSR sort gate) observed: high polyreactivity

Consider QVQLVESGGGLVQAGGSLRLICAASGSIFFPYDMGWYRQAPGKERELVASITRAGSTNYADSVKGRFTISRDNAKNTVYLQMNSLKPEDTAVYYCAARNYRQFEYGYWGQGTQVTVSS . Its measured polyreactivity (PSR sort gate) is low polyreactivity

# polyreactivity (PSR sort gate) (sequence: QVQLVESGGGLVQAGGSLRLSCAASGSTFPLYAMGWYRPAPGKEREFVAAINRSTGTTYYADSVKGRFTISRDNAKNTVYLQMNSLKPEDTAVYYCAARVYYRTVLGGYYYWGQGTQVTVSS ) is low polyreactivity

Kindly note the recorded polyreactivity (PSR sort gate) for QVQVVESGGGLVQAGGSLGLSCAASGSTFTRNAMGWYRQAPGKERELVAAITSSGGSTYYADSVKGRFTISRDNAKNTVYLLMNSLKPEDTAVYYCAAYVRPSYFGWMDYWGQGTQVTVSS , which is low polyreactivity

The reported polyreactivity (PSR sort gate) of the sequence QVHLVESGGGLLQAGGSLRLSFAASGTFYYYAMGWNRQAPGKERELVATISWDSASTYYADSVKGRFTISRDNAKNTVYLQMNSLKPEDTGVYYCAAGGSSSWAFNYWGQGTQVTVSS was low polyreactivity

get_value(item= QVQLVESGGGLVQAGGSLRLSCVASGRTFSRYAMGWYRQAPGKERELVAAISRRGGSTYYADSVKGRFTISRDNAKNTVYLQMNRLKPEDTAVNYCAAGYITCGSGNWVVTPYDYWGQGTQVTVSS , readout=polyreactivity (PSR sort gate)) returns high polyreactivity

Entry QVQLVESGGGLVQAGGSLRLSCAASGSTFGKYAMGWYRQAPGKERELVAAITNGGRTNFADSVKGRFTISRDNAKNTVYLQMNSLKPEDTAVYFCNKARYGTDDYEYWGQGTQVTVSS ; polyreactivity (PSR sort gate) = low polyreactivity

The measured polyreactivity (PSR sort gate) associated with QVQLVESGGGLVQAGGSLRLSCAASGIIFQKYAMGWYRQEPGKERELVDAITRRGGSTYYADSVKGRFTISRDNAKNTVYLQMNSLKPEDTAVYYCAVQLRRHVDMDYWGQGTQVTVSS reads high polyreactivity

----------
Test: yeast display, Sf9 membrane polyspecificity reagent, FACS + sequencing; frameworks hold sequencing errors
value.type: polyreactivity (PSR sort gate)

Please review the following examples before continuing.
[
  {
    "sequence.data": "QVQLVETGGGLVQAGGSLRLSCAASGSTFGYYAMGWYRQAPGKERELVAAITSGGSTYYADSVKGRFTISRDNAKNSVFLQMNSLKPEDTAVYYCAATWYGFAYDYWGQGTQVTVSS",
    "polyreactivity (PSR sort gate)": "low polyreactivity"
  },
  {
    "sequence.data": "QGQLVESGGGLVQAGGKLRLSCAASGSIFVRYAIGWYRQAPGKERELVAAISTRGDTTYYADSVKGRFTNSRDNAKNTVYLQLNSLKPEDTAVFYCAAVASQYPGPRNYDYWGQGTQVTVSS",
    "polyreactivity (PSR sort gate)": "low polyreactivity"
  },
  {
    "sequence.data": "QVQLVESGGGLVQAGGSLRISCDASGYIFGWNSMGWYRQAPGKERELVAAISSSGGNTYYADSVKGRFTISRDNAKNTVYLQMNSLKPEDTAVYYCARSYPYRYDYWGQGTQVTVSS",
    "polyreactivity (PSR sort gate)": "low polyreactivity"
  },
  {
    "sequence.data": "QVQLVESGGGLVQAGGSLRLSCASSGSTFNSYAMGWYRQAPGKERELVAAISWSGGSTYYADSVKGRFTISRDNAKNTVYLQMNSLKPEDTAVYYCNADYWWEYAYVVDYWGQGTQVTVSS",
    "polyreactivity (PSR sort gate)": "low polyreactivity"
  }
]

Per the records, this sequence ( QVQLVESGGGLVQAGGSLRLSCAASGSTFRYYAMGWYRQAPGKERELVAAISGSGGRTYYADSVKGRFTISRDNAKNTVYLQMNSLKPEDTAVYYCAASRYQFYWGQGTQVTVSS ) has polyreactivity (PSR sort gate) equal to high polyreactivity

Just so you know, measured polyreactivity (PSR sort gate) for QVQLVESGGGLVQAGGSLRLSCAASGRIFSYYAMGWYRQAPGKERELVAAISRTGGRTYYADSVKGRFTISRDNAKNTVYLQMNSLKPEDTAVYYCNVVGRRYWHWDQALDYWGQGTQVTVSS came out at high polyreactivity

polyreactivity (PSR sort gate) measured on QVQLVESGGGLVQAGGSLRLSCAASGRTFNHYAMGWYRQAPGKERELVAGITISGGSTYYADSVKGRFTISRDHAKNTVDLQMNSLKPEATAVYYCNAVSDYYRQSKWTMDYWGQGTQVTVSS = low polyreactivity

Entry QVQLVESGGGLVQAGGSLRLSCAASGFIFTIYAMGWYRQAPGKERELVAAISSGGSTTYADSVKGRFTISRDNAKNTVYLQMNSLKPEDTAVYYCNADYQYNRYSRVVGGHYVGWYGYWGQGTQVTVSS , polyreactivity (PSR sort gate) reported as low polyreactivity

Query QVQLVESGGGLVQAGGSLRLSCAASGSTFFSYAMGWYRQAPGKDRELVAAISNSGGTTYYADSVKGRFTISRDNAKNTVYLQMNSLKPEDTAVYYSATRARYVGGYKYNYWGQGTQVTVSS yields polyreactivity (PSR sort gate) of high polyreactivity

So for QVQLVESGGGLVQAGGSLRLSCAASGRIFKFYAMGWYRQAPGKERELVAGITTSGGSTYYADSVKGRFTISRDNAKNTVYLQMNSLKPEDTAVYYCAASRHFARHRGYYFRYDYWGQGTQVTVSS , the logged polyreactivity (PSR sort gate) turned out to be high polyreactivity

The recorded polyreactivity (PSR sort gate) for QVQLVESGGGLVQAGGSLRLSCAASGSIFDNAMGWYRQAPGKERELVAAISLSGSRTYYADSVKGRFTISRDNAKNTDYLQMNSLKPEDTAVYYCNTELVYYSTYDYWGQGTQVTVSS is low polyreactivity
